# System: HaCat
# protocol.text: Cytotoxic Profiling of Annotated Libraries Using Quantitative High-Throughput Screening (AID 1296008); further: nearly all actives have a fitted effect of over 60% in size
# particulars: Five cell lines viability, CellTiter-Glo ATP luminescence, 48-72 h
Inconclusive results are not listed. Calls of active or inactive are those of the source. The call rests on the fitted dose curve; in most records, active means well fitted inhibition curve with a large enough effect; inconclusive means small, poorly fitted or top-dose-only effect; inactive means flat fitted curve, though single readings scatter.
Labels: 1 (yes) = active, 0 (no) = inactive

{"columns": ["compound", "measurement.target", "group.label"],
 "data": [
  ["CC(C)(O)/C=C1/C(=O)C(C)(C)C(=O)C(C)(C)C1(O)O[C@@H]1O[C@H](COC(=O)c2cc(O)c(O)c(O)c2)[C@@H](O)[C@H](O)[C@H]1O (some centres undefined)", "HaCat", "0 (no)"],
  ["COc1ccc([C@H]2Cc3cccc(O)c3C(=O)O2)cc1", "HaCat", "0 (no)"],
  ["C[C@H]1CN(C[C@H](Cc2ccccc2)C(=O)NCC(=O)O)CC[C@@]1(C)c1cccc(O)c1", "HaCat", "0 (no)"],
  ["COc1cc(N2CCC(O)CC2)ccc1Nc1cc(Nc2ccccc2S(=O)(=O)C(C)C)c2cc[nH]c2n1", "HaCat", "1 (yes)"]
]}

----------
# measurement.target: Guanidinoacetate N-methyltransferase (Homo sapiens)
# protocol.text: Confirmatory Screen for Target Class Profiling of Small Molecule Inhibitors of Methyltransferases (AID 1745852)
# particulars: MTase-Glo luminescence, SAH detection, recombinant enzyme; series mostly up to 57.3 µM
Active and inactive are the calls of the source. Calls follow the shape of the full dose curve.
Outcome codes: active, inactive

{"columns": ["compound", "group.label"],
 "data": [
  ["CCOc1ccc(-c2ccc(Cn3c(CC(C)(C)C(=O)O)c(SC(C)(C)C)c4cc(OCc5ccc(C)cn5)ccc43)cc2)cn1", "inactive"],
  ["OC[C@H]1O[C@@H](Oc2ccc(O)c3cccc(O)c23)[C@H](O)[C@@H](O)[C@@H]1O", "active"],
  ["CC(C)N(C[C@H]1O[C@@H](n2cnc3c(N)ncnc32)[C@H](O)[C@@H]1O)C1CC(CCc2nc3ccc(C(C)(C)C)cc3[nH]2)C1 (stereo partly specified)", "active"],
  ["O=C(O)c1cc(O)c2cccc(O)c2c1O[C@@H]1O[C@H](CO)[C@@H](O)[C@H](O)[C@H]1O", "active"],
  ["COc1cc2c(Nc3ccc(Cl)c(Cl)c3F)ncnc2cc1OCC1C[C@@H]2CN(C)C[C@@H]2C1 (stereo partly specified)", "active"],
  ["CCc1nc(C(N)=O)c(Nc2ccc(N3CCC(N4CCN(C)CC4)CC3)c(OC)c2)nc1NC1CCOCC1", "active"]
]}

----------
# System: CP194
# protocol.text: qHTS profiling for inhibitors of Plasmodium falciparum proliferation (AID 504749); further: nearly all actives have a fitted effect of over 60% in size
# particulars: P. falciparum in erythrocytes, SYBR Green DNA, 72 h; series mostly up to 28.7 µM
Records with an inconclusive call do not appear. Activity calls are given as the source filed them. Calls follow the shape of the dose curve; as a rule, active = well fitted inhibition curve with a large enough effect; inconclusive = small, poorly fitted or top-dose-only effect; inactive = flat fitted curve, though single readings scatter.
Labels: active, inactive

{"columns": ["compound", "group.label"],
 "data": [
  ["CCCCCCCCCCCCCC[n+]1ccc(C)cc1", "active"],
  ["CC1(C)C(C=C(Cl)Cl)C1C(=O)OCc1cccc(Oc2ccccc2)c1 (stereo not drawn)", "inactive"],
  ["C#CCOc1ccc2c(C)cc(=O)oc2c1", "inactive"],
  ["CC(C)=O", "inactive"],
  ["CCCCCCC(O)C/C=C/CCCCCCCC(=O)O (stereo not drawn)", "inactive"],
  ["CCNC(=O)[C@@H]1CCCN1C(=O)[C@H](CCCN=C(N)N)NC(=O)[C@H](CC(C)C)NC(=O)[C@@H](Cc1c[nH]c2ccccc12)NC(=O)[C@H](Cc1ccc(O)cc1)NC(=O)[C@H](CO)NC(=O)[C@H](Cc1c[nH]c2ccccc12)NC(=O)[C@H](Cc1cnc[nH]1)NC(=O)[C@@H]1CCC(=O)N1", "active"],
  ["O=CCCCC=O", "inactive"],
  ["C[C@H]1C[C@H]2[C@@H]3CCC4=CC(=O)C=C[C@]4(C)[C@@]3(F)[C@@H](O)C[C@]2(C)[C@@]1(O)C(=O)CO", "inactive"],
  ["CCOc1ccc2c(c1)C(C)=CC(C)(C)N2", "inactive"],
  ["O=C(O)CCC(=O)C(=O)O", "inactive"],
  ["NC(=O)c1ncn(C2OC(CO)C(O)C2O)n1 (stereo not drawn)", "inactive"],
  ["CC1=CCC(C(C)(C)O)CC1 (stereo not drawn)", "inactive"],
  ["CCCCCCCCCCCC[n+]1ccc2ccccc2c1", "active"],
  ["C=C1C(=CC=C2CCC[C@@]3(C)[C@@H]2CC[C@H]3[C@H](C)CCCC(C)C)C[C@@H](O)C[C@@H]1O", "inactive"],
  ["Cc1cn([C@H]2C[C@H](O)[C@@H](CO)O2)c(=O)[nH]c1=O", "inactive"],
  ["Cc1c(C)c2c(c(C)c1O)CC[C@@](C)(CCC[C@H](C)CCC[C@H](C)CCCC(C)C)O2", "inactive"],
  ["CC(=O)Oc1c(C)cc(OCC(O)CNC(C)C)c(C)c1C (stereo not drawn)", "inactive"],
  ["Cc1ccccc1", "inactive"],
  ["CCN(CC)CCOc1ccc(-c2nc3cc(Cl)ccc3s2)cc1", "inactive"],
  ["CCCCC(=O)O[C@]1(C(=O)CO)[C@H](C)C[C@H]2[C@@H]3CCC4=CC(=O)C=C[C@]4(C)[C@@]3(F)[C@@H](O)C[C@@]21C", "inactive"],
  ["CCOc1ccc(N=Nc2ccc(N)cc2N)cc1", "inactive"],
  ["CC1=C(/C=C/C(C)=C/C=C/C(C)=C/C=C/C=C(C)/C=C/C=C(C)/C=C/C2=C(C)CCCC2(C)C)C(C)(C)CCC1", "inactive"],
  ["CCCC(=O)Nc1ncnc2c1ncn2C1OC2COP(=O)(O)OC2C1OC(=O)CCC (stereo not drawn)", "inactive"],
  ["CCCCC(C)(O)C/C=C/[C@H]1[C@H](O)CC(=O)[C@@H]1CCCCCCC(=O)OC (stereo partly drawn)", "inactive"],
  ["O=C1C(=O)c2ncccc2-c2cccnc21", "active"],
  ["CN1C(=O)CN2CCc3ccccc3C2c2cc(Cl)ccc21 (stereo not drawn)", "inactive"],
  ["CCN(CC)Cc1cc(Nc2ccnc3cc(Cl)ccc23)ccc1O", "active"],
  ["IC(I)I", "inactive"],
  ["CC(C)(C)C(=O)OCOC(=O)[C@@H]1N2C(=O)[C@@H](N=CN3CCCCCC3)[C@H]2SC1(C)C", "inactive"],
  ["CC1(C)S[C@@H]2[C@H](NC(=O)[C@@H](NC(=O)N3CCNC3=O)c3ccccc3)C(=O)N2[C@H]1C(=O)O", "inactive"],
  ["O=S(=O)(O)c1ccc2c(N=Nc3ccc(S(=O)(=O)O)c4ccccc34)c(O)c(S(=O)(=O)O)cc2c1", "inactive"],
  ["Nc1c(Br)cc(Br)cc1CNC1CCC(O)CC1 (stereo not drawn)", "inactive"],
  ["CC[C@@]1(O)C(=O)OCc2c1cc1n(c2=O)Cc2cc3c([N+](=O)[O-])cccc3nc2-1", "active"],
  ["O=C(O)c1cc(O)c2c(c1)[O][Bi][O]2", "inactive"],
  ["CCCCCCCC/C=C\\CCCCCCCC(=O)O", "inactive"],
  ["Cc1cc(C(=O)NNCc2ccccc2)no1", "inactive"],
  ["COC(F)(F)C(Cl)Cl", "inactive"],
  ["CCCCC/C=C\\C/C=C\\CCCCCCCC(=O)O", "inactive"],
  ["CC(C)N=c1cc2n(-c3ccc(Cl)cc3)c3ccccc3nc-2cc1Nc1ccc(Cl)cc1", "inactive"],
  ["CC(NNC(=O)c1ccccc1)c1ccccc1 (stereo not drawn)", "inactive"],
  ["CCCCCCCC(=O)O", "inactive"],
  ["Nc1ncnc2c1ncn2[C@@H]1O[C@H](COP(=O)(O)OP(=O)(O)OP(=O)(O)O)[C@@H](O)[C@H]1O", "inactive"],
  ["CCOC(C)=O", "inactive"]
]}
